# Lookup of reported normalized growth keyed by entry
Experiment: chemical genetic growth profiling, strain panel (AID 1159580);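 also: tested at 20 µM; growth read once vehicle control cultures reached saturation at 30 °C; 1 = growth at the plate median or of vehicle wells; lower values mean less growth of the strain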
Conditions: S. cerevisiae deletion strains, growth OD, locus YDL074C, strain BRE1, stronger effect = lower value
Screen size: about 5,500 compounds; about 2,000 (36%) were called active. Not shown: some 18% with an inconclusive outcome. This is one part of the list.
# respond with the number and nothing more

Per the record, CC(=O)C1CCC2C3CCC4C[C@H](O)CCC4(C)C3C[C@H](O)C12C (stereo not given in full) has normalized growth of 1.16

The recorded normalized growth for Clc1ccc(COC(Cn2ccnc2)c2ccc(Cl)cc2Cl)c(Cl)c1 (stereo not given) is 0.0763

Reported normalized growth ( CC1[C@H](C)OC(=O)CC(O)CC(O)CC(O)CCC(O)C(O)C[C@]2(O)CC(O)C(C(=O)O)C(CC(OC3O[C@H](C)[C@@H](O)[C@H](N)[C@@H]3O)/C=C/C=C/C=C/C=C/CC/C=C/C=C/[C@H](C)[C@H]1O)O2 (stereo not given in full) ) = 0.144

Data point: CCC(=O)OC1[C@@H]2CC3=C4CC(=O)O[C@@H](c5ccoc5)[C@]4(C)CCC3[C@@](C)(C2=O)[C@@H](CC(=O)OC)C1(C)C (stereo not given in full) ; normalized growth = 1.01

`NC1(C(=O)O)CC1` has a reported normalized growth of 1.01

---

Assay: chemical genetic growth profiling, strain panel (AID 1159580);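 also: tested at 20 µM; growth read once vehicle control cultures reached saturation at 30 °C; 1 = growth at the plate median or of vehicle wells; lower values mean less growth of the strain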
Conditions: S. cerevisiae deletion strains, growth OD, locus YMR219W, strain ESC1, stronger effect = lower value
Hit rate of the full screen: of about 5,500 compounds, about 2,000 (36%) were called active. Not shown: some 18% with an inconclusive outcome. This is one part of the list.
measurement label: normalized growth
Answer with a number only.

>>> df
                                   compound  measurement_label  quantitative_readout
0  O=[N+]([O-])c1ccc(C(O)C(O)CO)cc1 (stereo not drawn)  normalized growth                 0.994
1  c1ccc(-c2ccc(-c3csc(-c4cccnc4)n3)cc2)cc1  normalized growth                  1.02
2  Cc1onc(-c2ccccc2Cl)c1C(=O)N1CCCN2C(=O)c3ccccc3C21 (stereo not drawn)  normalized growth                  1.01
3  Cc1nn(-c2ccccc2)nc1-c1nnc(-c2ccc(Cl)cc2)o1  normalized growth                 0.998
4           O=C1NN(c2ccccc2)C(=S)Nc2ccccc21  normalized growth                 0.999

# normalized growth (compound: `CCOC(=O)CNc1ccc(Cl)c(Cl)c1` ) is 0.974

Looking up `Cc1c(C)c(C)c(CSc2nc3ccccc3[nH]2)c(C)c1C` , I found its normalized growth recorded as 1.01

---

Assay: chemical genetic growth profiling, strain panel (AID 1159580);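 also: tested at 20 µM; growth read once vehicle control cultures reached saturation at 30 °C; 1 = growth at the plate median or of vehicle wells; lower values mean less growth of the strain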
Details: S. cerevisiae deletion strains, growth OD, locus YNL175C, strain NOP13, stronger effect = lower value
Among all 5,500 compounds or so, about 2,000 (36%) were called active. Not shown: some 18% with an inconclusive outcome. This is one part of the list.
measurement label: normalized growth
The reply should be a number, written without any unit.

Example results:
>>> df
                                   compound  quantitative_readout
0  S=C(S)OC1CC2CC1C1CCCC21 (centres undefined)                  1.02
1   CCCn1c(=O)c2[nH]c(C3CCCC3)nc2n(CCC)c1=O                 0.977
2  O=S1(=O)N(CCN2CC=C(c3c[nH]c4cc(F)ccc34)CC2)c2cccc3c2N1CCC3                 0.987
3  COc1cc2nc(N3CCN(C(=O)OCc4ccccc4)C(C(=O)NC(C)(C)C)C3)nc(N)c2cc1OC (centres undefined)                  1.02
4              CC(=O)NCCc1c[nH]c2ccc(O)cc12                  1.01
5  Cc1ccccc1CNc1ncnc2c1ncn2C1OC(CO)C(O)C1O (centres undefined)                  1.01
6  CC[C@H](CO)Nc1nc(NCc2ccccc2)c2ncn(C(C)C)c2n1                     1
7           N.N.O=C(O)C1(C(=O)O)CCC1.[Pt+2]                 0.998

The reported value for Cc1ccccc1N1CCN(S(=O)(=O)C[C@]23CCC(CC2NC(=O)[C@@H](N)CCS(C)(=O)=O)C3(C)C)CC1 (some centres undefined) in terms of normalized growth is 1.01
